The entries below come with measured Blood values attached.
# Tested on: PC-3 PIP/flu tumor-bearing mice
# PROTOCOL: Biodistribution studies in PC-3 PIP/flu tumor-bearing mice
# RUN_CONDITIONS: 4 h p.i.
Write it as a number; the unit % IA/g goes unstated.

COMPOUND	Blood, % IA/g
Cc1ccc(CCCC(=O)NC(CC(=O)NC(CC(=O)NC(CC(=O)NC(CCCCNC(=O)CN2CCN(CC(=O)O)CCN(CC(=O)O)CCN(CC(=O)O)CC2)C(=O)NCC2CCC(C(=O)NC(Cc3ccc4ccccc4c3)C(=O)NCCCCC(NC(=O)NC(CCC(=O)O)C(=O)O)C(=O)O)CC2)C(=O)O)C(=O)O)C(=O)O)cc1 (centres unmarked) [^177Lu-PSMA-ALB-08, metal not drawn]	0.41

Could you now look at the following compound, please?
// query Blood value for entry O=C(O)CCC(NC(=O)NC(CCCCNC(=O)C(Cc1ccc2ccccc2c1)NC(=O)C1CCC(CNC(=O)C(CCCCNC(=O)CCCc2ccc(I)cc2)NC(=O)CN2CCN(CC(=O)O)CCN(CC(=O)O)CCN(CC(=O)O)CC2)CC1)C(=O)O)C(=O)O (centres unmarked) [^177Lu-PSMA-ALB-03, metal not drawn]
24.3
